Molecular target: amylin receptor
Assay: Amylin receptor binding assay, rat nucleus accumbens membranes
Details: 125I-rat amylin displacement
pIC50: −log10 of the molar value. Ends that are not written are not given here. Y‑shaped‑mPEG40KD = Y-shaped methoxy-PEG of 40 kDa attached to the Lys side chain
Parameter pIC50: see the listing below.
Endpoint Name: pIC50

Substance	Endpoint Name	Readout Number
CNTATCATQRLANFLVRSSNNLGPVLPPTNVGSNTY [Cmpd 50, [des-Lys^1]-Cmpd 49]	pIC50	9.38
[K^26(Y-shaped-mPEG40KD)]-Cmpd 53 (KCNTATCATQRLANFLVRSSNNLGPK(Y‑shaped‑mPEG40KD)LPPTNVGSNTY-NH2; cysteine pairing not given here) [Cmpd 75]	pIC50	6.33
[K^26(mPEG40KD)]-Cmpd 53 (KCNTATCATQRLANFLVRSSNNLGPK(mPEG40KD)LPPTNVGSNTY-NH2; cysteine pairing not given here) [Cmpd 71]	pIC50	7.18
mPEG40KD-Cmpd 50 (CNTATCATQRLANFLVRSSNNLGPVLPPTNVGSNTY-NH2; cysteine pairing not given here; also: mPEG40KD attached, site not given here) [Cmpd 68]	pIC50	7.11
